- Test system: gene editing with dCas9
- experiment: Screen of 322 new SSAP proteins, gene editing activity with dCas9 (Table 5)
- Assay type: cell-based
- applied.conditions: normalized
List of dCas9 with SSAP activity (normalized) values.
measured.parameter: dCas9 with SSAP activity (normalized)

[[record]]
molecule = "SSAP_144: SEQ ID NO: 313; Romboutsia weinsteinii (protein, listed as Romboutsia weinsteinii) TNLKNTLKNKEAKGNNLAINPSYAMKQLMIKMKGEITSALPKELCSERFQRVALTAFNSNPKLQNCAPMTFIAAMMQSDQLGLEPNTPLGQAYLIPYKVKGIDKVQFQIGYKGLLELAHRSGRLKTLYAHEVRENDEFDIDYGLEQRLIHKPLLKGNRGEVIGYYAVYHLEHNGYSFVFMTYDEVLEHGKKYSKSFEGGIWEKEFDSMAKKTVIKKLLKYAPLSIEIQKAINFDESVKGSIDSDMLLVDKADESIDVEGNVLNQRGIKYGCI"
observed_measurement = "−1.765"

[[record]]
molecule = "SSAP_146: SEQ ID NO: 315; Mobilisporobacter senegalensis (protein, listed as Mobilisporobacter senegalensis) KDIKSALEKKVDKQDVKLTKSMSITDMIKALEPEIKKALPSVITPERFTRMALSAVNNTPKLAECSQMSFLAALMNAAQLGLEPNTSLGQAYLIPYQNKGKLECQFQLGFKGMIDLVYRNEKVQTIQAHCVYEEDYFEYELGLDSKLAHKPALANRGKMILVYAFFKLENGGFGFEVMSKEDIDIHALKYSKGYSSQYSPWKSNYEDMAKKTVIKKVLKYAPLKIDFQRAISVDETVKAEISIDMSEVQNEEIIDGQCTDVGEIEEK"
observed_measurement = "−1.210"

[[record]]
molecule = "SSAP_201: SEQ ID NO: 370; Streptomyces reniochalinae (protein, listed as Streptomyces reniochalinae) SQISNAVAKRDNSPGAMVQQYKADFSTVLPDHVKPDTWVRLAQGVLRRDKNLAQAAERNPGSLMTALLDCARLGHEPGTESFYLVPFGGEVQGIEGYRGVVERMYRAGAIASVKAEVVCQGDDFDYQPDMDKPRHRVDWFGDRGPIVGAYAYAIFKDGSTSRVAVINRAYIDKVKKESKGSDRATSPWMKWEEQMVLKTVAKRLEPWVPTSNEWRREQLRAAREVANEPTPPTTPAPPAPEQVDPDTGEVIDGELVDDTPTQ"
observed_measurement = "−1.510"

[[record]]
molecule = "SSAP_16: SEQ ID NO: 185 (protein) MAKENYSDPNGKLLNSITTFEVNGEEVKLSGNIIRDYLVSGNAEVTDQEIIMFLQLCKYQKLNPFLNEAYLVKFKNTKGPDKPAQIIVSKEAFMKRAETHEQYDGFEAGVIVERGGEIIELEGAVSLASDKLLGGWAKVFRKDRNRPVSVRISEKEFNKRQSTWNTMPLTMMRKTAVVNAMREAFPDNLGAMYTEEEQGSLQNTETSVQQEIKQNANAEVLDIPSQQNEVPDFKEVREPEHVEMPPIYGEQQSTPPARPY"
observed_measurement = "−1.047"

